- TESTED_ON: Melanocortin receptor 5 (Homo sapiens)
- Sequence (P33032 whole entry): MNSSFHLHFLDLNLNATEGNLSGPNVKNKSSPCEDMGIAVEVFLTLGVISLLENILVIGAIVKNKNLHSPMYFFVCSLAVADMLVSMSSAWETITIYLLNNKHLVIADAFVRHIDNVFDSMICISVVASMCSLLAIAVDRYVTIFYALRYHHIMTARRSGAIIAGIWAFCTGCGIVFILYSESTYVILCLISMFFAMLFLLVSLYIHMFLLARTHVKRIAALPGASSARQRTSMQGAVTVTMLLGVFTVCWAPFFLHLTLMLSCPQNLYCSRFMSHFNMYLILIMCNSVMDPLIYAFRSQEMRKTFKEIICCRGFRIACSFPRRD
- EXPERIMENTAL_PROTOCOL: Displacement of [125I]NDPalphaMSH from human cloned MC5R expressed in CHO cells
- Assay type: cell-based
MEASURED_PARAMETER: IC50

Known results for molecules:
SMILES_NOTATION	IC50
CCCC[C@H](NC(C)=O)C(=O)N[C@H]1CC(=O)NCCCC[C@@H](C(N)=O)NC(=O)[C@H](Cc2c[nH]c3ccccc23)NC(=O)[C@@H]2CCCCN2C(=O)[C@@H](Cc2ccc(-c3ccccc3)cc2)NC(=O)[C@H](C(C)C)NC1=O	7.3 nM (antagonist)
CCCC[C@H](NC(C)=O)C(=O)N[C@H]1CC(=O)NCCCC[C@@H](C(N)=O)NC(=O)[C@H](Cc2c[nH]c3ccccc23)NC(=O)[C@@H]2CCCN2C(=O)[C@@H](Cc2ccc(-c3ccccc3)cc2)NC(=O)[C@@H]2CCCN2C1=O	2.9 nM (antagonist)

Supply measured IC50 of CCCC[C@H](NC(C)=O)C(=O)N[C@H]1CC(=O)NCCCC[C@@H](C(N)=O)NC(=O)[C@H](Cc2c[nH]c3ccccc23)NC(=O)[C@@H]2CCCCN2C(=O)[C@@H](Cc2ccc(-c3ccccc3)cc2)NC(=O)[C@H](c2ccccc2)NC1=O in your reply.
2.1 nM (antagonist)

Supply measured IC50 of CCCC[C@H](NC(C)=O)C(=O)N[C@H]1CC(=O)NCCCC[C@@H](C(N)=O)NC(=O)[C@H](Cc2c[nH]c3ccccc23)NC(=O)[C@@H]2CCCN2C(=O)[C@@H](Cc2ccc(Cl)cc2)NC(=O)[C@H](Cc2c[nH]cn2)NC1=O in your reply.
1300 nM (antagonist)

Supply measured IC50 of CCCC[C@H](NC(C)=O)C(=O)N[C@H]1CC(=O)NCCCC[C@@H](C(N)=O)NC(=O)[C@H](Cc2c[nH]c3ccccc23)NC(=O)[C@@H]2CCCN2C(=O)[C@@H](Cc2ccc(OCC)cc2)NC(=O)[C@H](Cc2cnc[nH]2)NC1=O in your reply.
340 nM (antagonist)

Supply measured IC50 of CCCC[C@H](NC(C)=O)C(=O)N[C@H]1CC(=O)NCCCC[C@@H](C(N)=O)NC(=O)[C@H](Cc2c[nH]c3ccccc23)NC(=O)[C@@H]2CCCN2C(=O)[C@@H](Cc2cccs2)NC(=O)[C@H](Cc2cnc[nH]2)NC1=O in your reply.
> 5000 nM

Supply measured IC50 of CCCC[C@H](NC(C)=O)C(=O)N[C@H]1CC(=O)NCCCC[C@@H](C(N)=O)NC(=O)[C@H](Cc2c[nH]c3ccccc23)NC(=O)[C@@H]2CCCCN2C(=O)[C@@H](Cc2ccc(-c3ccccc3)cc2)NC(=O)[C@H](Cc2c[nH]cn2)NC1=O in your reply.
0.72 nM (antagonist)

Supply measured IC50 of CCCC[C@H](NC(C)=O)C(=O)N[C@H]1CC(=O)NCCCC[C@@H](C(N)=O)NC(=O)[C@H](Cc2c[nH]c3ccccc23)NC(=O)[C@@H]2CCCCN2C(=O)[C@@H](Cc2ccc(-c3ccccc3)cc2)NC(=O)[C@@H]2Cc3ccccc3CN2C1=O in your reply.
2.7 nM (antagonist)

Supply measured IC50 of CCCC[C@H](NC(C)=O)C(=O)N[C@H]1CC(=O)NCCCC[C@@H](C(N)=O)NC(=O)[C@H](Cc2c[nH]c3ccccc23)NC(=O)[C@@H]2CCCN2C(=O)[C@@H](Cc2ccc(-c3ccccc3)cc2)NC(=O)[C@H](Cc2c[nH]cn2)NC1=O in your reply.
4.1 nM (antagonist)

Supply measured IC50 of CCCC[C@H](NC(C)=O)C(=O)N[C@H]1CC(=O)NCCCC[C@@H](C(N)=O)NC(=O)[C@H](Cc2c[nH]c3ccccc23)NC(=O)[C@@H]2CCCN2C(=O)[C@@H](CC2CCCCC2)NC(=O)[C@H](Cc2c[nH]cn2)NC1=O in your reply.
> 10000 nM

Supply measured IC50 of CCCC[C@H](NC(C)=O)C(=O)N[C@H]1CC(=O)NCCCC[C@@H](C(N)=O)NC(=O)[C@H](Cc2c[nH]c3ccccc23)NC(=O)[C@@H]2CCCN2C(=O)[C@@H](CCC(=O)O)NC(=O)[C@H](Cc2c[nH]cn2)NC1=O in your reply.
> 10000 nM

----------
- TESTED_ON: Melanocortin receptor 3 (Homo sapiens, UniProt P41968)
- Sequence (P41968 whole entry): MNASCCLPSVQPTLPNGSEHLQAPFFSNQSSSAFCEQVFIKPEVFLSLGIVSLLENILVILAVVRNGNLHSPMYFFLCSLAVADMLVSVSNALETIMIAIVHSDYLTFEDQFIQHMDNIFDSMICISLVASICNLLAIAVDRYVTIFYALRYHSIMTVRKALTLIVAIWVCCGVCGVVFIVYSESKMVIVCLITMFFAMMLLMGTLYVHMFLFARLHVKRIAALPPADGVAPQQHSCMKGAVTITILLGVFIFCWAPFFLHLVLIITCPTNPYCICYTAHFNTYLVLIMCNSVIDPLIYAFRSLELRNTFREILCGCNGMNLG
- EXPERIMENTAL_PROTOCOL: Agonist activity at human MC3R expressed in CHO cells assessed as cAMP accumulation at 1 uM relative to [125I]NDPalphaMSH
- Format: functional, cell-based
Starred links: 1 amine or outer side, 2 acyl side, 3 side chain; linkers in the order of their positions; H or OH if unused. Positions of bridges follow the written chain, without caps; N, C: chain ends. Non-standard residues stand in square brackets, D forms with d. Residues, ends and D or L forms follow the SMILES beside them. ξ: configuration not given here. X7 = O=C([C@H](Cc1ccc(Cc2ccccc2)cc1)N[*:1])[*:2]; Oic(3aξ,7aξ) = O=C(O)[C@@H]1CC2CCCCC2N1; Pip = O=C(O)[C@@H]1CCCCN1; Nle = CCCC[C@H](N)C(=O)O
MEASURED_PARAMETER: Activity (%)

COMPOUND	MEASURED
CCCC[C@H](NC(C)=O)C(=O)N[C@H]1CC(=O)NCCCC[C@@H](C(N)=O)NC(=O)[C@H](Cc2c[nH]c3ccccc23)NC(=O)[C@@H]2CCCCN2C(=O)[C@H](Cc2ccc(Cc3ccccc3)cc2)NC(=O)[C@@H]2CC3CCCCC3N2C1=O (some centres undefined) (Ac-[Nle]D[Oic(3aξ,7aξ)][X7][Pip]WK-NH2; lactam 2-7)	2

a: CCCC[C@H](NC(C)=O)C(=O)N[C@H]1CC(=O)NCCCC[C@@H](C(N)=O)NC(=O)[C@H](Cc2c[nH]c3ccccc23)NC(=O)[C@@H]2CCCCN2C(=O)[C@H](Cc2ccc(-c3ccccc3)cc2)NC(=O)[C@H](c2ccccc2)NC1=O
b: CCCC[C@H](NC(C)=O)C(=O)N[C@H]1CC(=O)NCCCC[C@@H](C(N)=O)NC(=O)[C@H](Cc2c[nH]c3ccccc23)NC(=O)[C@@H]2CCCCN2C(=O)[C@H](Cc2ccc(-c3ccccc3)cc2)NC(=O)[C@H](C(C)C)NC1=O
c: CCCC[C@H](NC(C)=O)C(=O)N[C@H]1CC(=O)NCCCC[C@@H](C(N)=O)NC(=O)[C@H](Cc2c[nH]c3ccccc23)NC(=O)[C@@H]2CCCCN2C(=O)[C@H](Cc2ccc(-c3ccccc3)cc2)NC(=O)[C@H](C2CCCCC2)NC1=O
Please list the entries, largest Activity first. Put the labels in the requested order and write them down.
b, c, a

----------
// EC50 lookup, one value per entry
- TESTED_ON: UniProtKB P33032
- EXPERIMENTAL_PROTOCOL: Agonist activity at human MC5R expressed in CHO cells assessed as cAMP accumulation
- Type: functional, cell-based

Supply measured EC50 of CCCC[C@H](NC(C)=O)C(=O)N[C@H]1CC(=O)NCCCC[C@@H](C(N)=O)NC(=O)[C@H](Cc2c[nH]c3ccccc23)NC(=O)[C@@H]2CCCN2C(=O)[C@@H](Cc2ccc(-c3ccccc3)cc2)NC(=O)[C@@H]2CCCN2C1=O in your reply.
1.6 nM (agonist)

Supply measured EC50 of CCCC[C@H](NC(C)=O)C(=O)N[C@H]1CC(=O)NCCCC[C@@H](C(N)=O)NC(=O)[C@H](Cc2c[nH]c3ccccc23)NC(=O)[C@@H]2CCCN2C(=O)[C@@H](Cc2ccc(-c3ccccc3)cc2)NC(=O)[C@@H]2CC3CCCCC3N2C1=O (some centres not stated) in your reply.
17 nM (agonist)

----------
- TESTED_ON: Melanocyte-stimulating hormone receptor (Homo sapiens, UniProt Q01726)
- Sequence (Q01726 whole entry): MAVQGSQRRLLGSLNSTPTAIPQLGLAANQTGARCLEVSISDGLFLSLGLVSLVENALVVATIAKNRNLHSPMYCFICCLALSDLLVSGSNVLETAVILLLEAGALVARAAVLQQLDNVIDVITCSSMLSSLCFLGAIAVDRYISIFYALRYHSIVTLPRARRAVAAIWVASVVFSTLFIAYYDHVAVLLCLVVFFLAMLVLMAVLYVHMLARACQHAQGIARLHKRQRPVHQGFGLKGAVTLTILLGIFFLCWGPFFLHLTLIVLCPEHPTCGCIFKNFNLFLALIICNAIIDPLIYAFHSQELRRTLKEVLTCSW
- EXPERIMENTAL_PROTOCOL: Agonist activity at human melanocortin receptor 1b expressed in CHO cells assessed as cAMP accumulation
- Assay type: functional, cell-based
// EC50 lookup, one value per entry

Known results for compounds:
SMILES_NOTATION	EC50
CCCC[C@H](NC(C)=O)C(=O)N[C@H]1CC(=O)NCCCC[C@@H](C(N)=O)NC(=O)[C@H](Cc2c[nH]c3ccccc23)NC(=O)[C@@H]2CCCN2C(=O)[C@@H](Cc2cccs2)NC(=O)[C@H](Cc2cnc[nH]2)NC1=O	540 nM (agonist)
CCCC[C@H](NC(C)=O)C(=O)N[C@H]1CC(=O)NCCCC[C@@H](C(N)=O)NC(=O)[C@H](Cc2c[nH]c3ccccc23)NC(=O)[C@@H]2CCCN2C(=O)[C@@H](Cc2ccc([N+](=O)[O-])cc2)NC(=O)[C@H](Cc2cnc[nH]2)NC1=O	> 500 nM
CCCC[C@H](NC(C)=O)C(=O)N[C@H]1CC(=O)NCCCC[C@@H](C(N)=O)NC(=O)[C@H](Cc2c[nH]c3ccccc23)NC(=O)[C@@H]2CCCN2C(=O)[C@@H](Cc2ccc3ccccc3c2)NC(=O)[C@H](Cc2cnc[nH]2)NC1=O	89 nM (agonist)

Here's the next entry for you.
Supply measured EC50 of CCCC[C@H](NC(C)=O)C(=O)N[C@H]1CC(=O)NCCCC[C@@H](C(N)=O)NC(=O)[C@H](Cc2c[nH]c3ccccc23)NC(=O)[C@@H]2CCCN2C(=O)[C@@H](CC2CCCCC2)NC(=O)[C@H](Cc2c[nH]cn2)NC1=O in your reply.
> 2500 nM
